melting point: recorded values
Report the figure in °C without appending any unit label.

Known melting point results, listed for orientation:
IN: Could you tell me which melting point is on file for O=C1CC(c2ccccc2)Oc2ccccc21 (centres undefined) ?
OUT: 77

IN: Could you tell me which melting point is on file for c1ccc2c(c1)ccc1nc3c(ccc4ccccc43)cc12 ?
OUT: 226

IN: Could you tell me which melting point is on file for CC(C)CCCN ?
OUT: -94.4

Further cases:
IN: Could you tell me which melting point is on file for COc1cccc(OC)c1 ?
OUT: -52

IN: Could you tell me which melting point is on file for OB(O)c1ccccc1 ?
OUT: 219

IN: Could you tell me which melting point is on file for Nc1ccc(Br)cc1[N+](=O)[O-] ?
OUT: 112

IN: Could you tell me which melting point is on file for O=C(C(F)(F)F)C(F)(F)F ?
OUT: -125

IN: Could you tell me which melting point is on file for Fc1c(F)c(F)c(Sc2c(F)c(F)c(F)c(F)c2F)c(F)c1F ?
OUT: 87

IN: Could you tell me which melting point is on file for Oc1ccc2c(c1)[C@@]13CCCC[C@@]1(O)[C@@H](C2)N(CC1CCC1)CC3 ?
OUT: 216

IN: Could you tell me which melting point is on file for OCc1ccccc1I ?
OUT: 92

IN: Could you tell me which melting point is on file for C[C@]12CC[C@@H]3c4ccc(OC(=O)N(CCCl)CCCl)cc4CC[C@H]3[C@@H]1CC[C@@H]2O ?
OUT: 104

IN: Could you tell me which melting point is on file for CCC(C)Br (centres undefined) ?
OUT: -112

IN: Could you tell me which melting point is on file for Oc1c(F)c(F)c(F)c(F)c1F ?
OUT: 32.8

IN: Could you tell me which melting point is on file for O=C1c2ccccc2-c2ccc(Cl)cc21 ?
OUT: 126

###

melting point class ranges: group 1 = under 30 °C, group 2 = from 30 °C up to 100 °C, group 3 = 100 °C and over

Please review the entries below; each comes with its answer.
IN: Which class does Cc1cc(C2(c3cc(C)c(O)c(Br)c3)OS(=O)(=O)c3ccccc32)cc(Br)c1O fall in?
OUT: group 3

IN: Which class does Brc1ccccc1I fall in?
OUT: group 1

IN: Which class does CCNc1nc(NC(C)(C)C)nc(SC)n1 fall in?
OUT: group 3

IN: Which class does Cc1cc(Br)ccc1Br fall in?
OUT: group 1

IN: Which class does CCCCCCCCCCCCOC(=O)c1ccc(N)cc1 fall in?
OUT: group 2

IN: Which class does O=C(O)c1ccccc1F fall in?
OUT: group 3

Further cases:
IN: Which class does c1cncc(-c2cccnc2)c1 fall in?
OUT: group 2

IN: Which class does O=S(=O)(O)c1ccc(-c2ccc(S(=O)(=O)O)cc2)cc1 fall in?
OUT: group 2

IN: Which class does CCOC(=O)c1ccc(O)c(OC)c1 fall in?
OUT: group 2

IN: Which class does CCOC(=O)/C=C\C(=O)OCC fall in?
OUT: group 1

IN: Which class does Cc1ccnc(-c2cc(C)ccn2)c1 fall in?
OUT: group 3

IN: Which class does O=C(OCC(COC(=O)c1cccnc1)(COC(=O)c1cccnc1)COC(=O)c1cccnc1)c1cccnc1 fall in?
OUT: group 3
